Assay: Capivasertib exposure metrics at steady state projected with PopPK model, patients with solid tumors
Format: in vivo
Settings: human, plasma, oral, 240 mg, Study 4 (Japanese patients), Continuous BID, 240 mg, PWD 3360 mg, N=7, median (range), read-out: Cmin
MEASURE NAME: concentration at 12 h (ng/mL)

compound=NC1(C(=O)N[C@@H](CCO)c2ccc(Cl)cc2)CCN(c2ncnc3[nH]ccc23)CC1 measure_name="concentration at 12 h" value_observed=170

* * *

Assay: Capivasertib exposure metrics at steady state projected with PopPK model, patients with solid tumors
Assay type: in vivo
Details: human, plasma, oral, 600 mg, Study 1, Continuous BID, PWD 8400 mg, N=2, median (range)
MEASURE NAME: Cmax (ng/mL)

compound=NC1(C(=O)N[C@@H](CCO)c2ccc(Cl)cc2)CCN(c2ncnc3[nH]ccc23)CC1 value_observed=2520

* * *

Assay: Capivasertib exposure metrics at steady state projected with PopPK model, patients with solid tumors
Assay type: in vivo
Settings: human, plasma, oral, 160 mg, Study 1, Continuous BID, 160 mg, PWD 2240 mg, N=5, median (range), read-out: AUCss(0–12 h)
MEASURE NAME: AUC (ng·h/mL)

molecule="NC1(C(=O)N[C@@H](CCO)c2ccc(Cl)cc2)CCN(c2ncnc3[nH]ccc23)CC1 [capivasertib]" value_observed=2990

* * *

Test: Capivasertib exposure metrics at steady state projected with PopPK model, patients with solid tumors
Assay type: in vivo
Conditions: human, plasma, oral, 320 mg, Study 1, Continuous BID, 320 mg, PWD 4480 mg, N=12, median (range), read-out: Cmin
Procedure: Study 1 (NCT01226316) was a phase 1 open-label multipart study. […] The duration of the treatment cycles was 21 days. […] [18]. […] [18, 25, 39]. […] The exposure–response analyses were conducted using a subset of patients from the PopPK analysis where capivasertib was used as monotherapy. […] The relative dose intensity (RDI) was calculated as the percentage of the average weekly dose relative to the PWD to examine the tolerability of capivasertib monotherapy at the given dosing schedules.
MEASURE NAME: concentration at 12 h

compound=NC1(C(=O)N[C@@H](CCO)c2ccc(Cl)cc2)CCN(c2ncnc3[nH]ccc23)CC1 value_observed="200 ng/mL"

* * *

Assay: Capivasertib exposure metrics at steady state projected with PopPK model, patients with solid tumors
Assay type: in vivo
Conditions: human, plasma, oral, 400 mg, Study 4 (Japanese patients), Continuous BID, 400 mg, PWD 5600 mg, N=5, median (range), read-out: AUCss(0–12 h)
MEASURE NAME: AUC

compound=NC1(C(=O)N[C@@H](CCO)c2ccc(Cl)cc2)CCN(c2ncnc3[nH]ccc23)CC1 value_observed="7750 ng·h/mL"

* * *

Assay: Capivasertib exposure metrics at steady state projected with PopPK model, patients with solid tumors
Type: in vivo
Conditions: human, plasma, oral, 160 mg, Study 1, Continuous BID, 160 mg, PWD 2240 mg, N=5, median (range), read-out: Cmin
MEASURE NAME: concentration at 12 h (ng/mL)

compound=NC1(C(=O)N[C@@H](CCO)c2ccc(Cl)cc2)CCN(c2ncnc3[nH]ccc23)CC1 measure_name="concentration at 12 h" value_observed=110

* * *

Test: Capivasertib exposure metrics at steady state projected with PopPK model, patients with solid tumors
Format: in vivo
Conditions: human, plasma, oral, 400 mg, Study 4 (Japanese patients), Continuous BID, PWD 5600 mg, N=5, median (range)
MEASURE NAME: AUC at 1 week

compound=NC1(C(=O)N[C@@H](CCO)c2ccc(Cl)cc2)CCN(c2ncnc3[nH]ccc23)CC1 value_observed="109 µg·h/mL"

* * *

Test: Capivasertib exposure metrics at steady state projected with PopPK model, patients with solid tumors
Type: in vivo
Details: human, plasma, oral, 360 mg, Study 4 (Japanese patients), [4/3] BID, PWD 2880 mg, N=8, median (range)
MEASURE NAME: AUC at 1 week (ng·h/mL)

molecule="NC1(C(=O)N[C@@H](CCO)c2ccc(Cl)cc2)CCN(c2ncnc3[nH]ccc23)CC1 [capivasertib]" value_observed=48800

* * *

Assay: Capivasertib exposure metrics at steady state projected with PopPK model, patients with solid tumors
Assay type: in vivo
Conditions: human, plasma, oral, 800 mg, Study 1, [2/5] BID, PWD 3200 mg, N=14, median (range)
MEASURE NAME: Cmax (ng/mL)

compound=NC1(C(=O)N[C@@H](CCO)c2ccc(Cl)cc2)CCN(c2ncnc3[nH]ccc23)CC1 value_observed=3930

* * *

Test: Capivasertib exposure metrics at steady state projected with PopPK model, patients with solid tumors
Assay type: in vivo
Conditions: human, plasma, oral, 640 mg, Study 4 (Japanese patients), [2/5] BID, PWD 2560 mg, N=6, median (range)
MEASURE NAME: Cmax

compound=NC1(C(=O)N[C@@H](CCO)c2ccc(Cl)cc2)CCN(c2ncnc3[nH]ccc23)CC1 measure_name=Cmax value_observed="2.48 µg/mL"

* * *

Assay: Capivasertib exposure metrics at steady state projected with PopPK model, patients with solid tumors
Assay type: in vivo
Details: human, plasma, oral, 400 mg, Study 1, Continuous BID, 400 mg, PWD 5600 mg, N=11, median (range), read-out: AUCss(0–12 h)
Method: Study 1 (NCT01226316) was a phase 1 open-label multipart study. […] The duration of the treatment cycles was 21 days. […] [18]. […] [18, 25, 39]. […] The exposure–response analyses were conducted using a subset of patients from the PopPK analysis where capivasertib was used as monotherapy. […] The relative dose intensity (RDI) was calculated as the percentage of the average weekly dose relative to the PWD to examine the tolerability of capivasertib monotherapy at the given dosing schedules.
MEASURE NAME: AUC (µg·h/mL)

compound=NC1(C(=O)N[C@@H](CCO)c2ccc(Cl)cc2)CCN(c2ncnc3[nH]ccc23)CC1 measure_name=AUC result_units=µg·h/mL value_observed=5.79

* * *

Assay: Capivasertib exposure metrics at steady state projected with PopPK model, patients with solid tumors
Format: in vivo
Settings: human, plasma, oral, 160 mg, Study 1, Continuous BID, PWD 2240 mg, N=5, median (range)
Protocol: Study 1 (NCT01226316) was a phase 1 open-label multipart study. […] The duration of the treatment cycles was 21 days. […] [18]. […] [18, 25, 39]. […] The exposure–response analyses were conducted using a subset of patients from the PopPK analysis where capivasertib was used as monotherapy. […] The relative dose intensity (RDI) was calculated as the percentage of the average weekly dose relative to the PWD to examine the tolerability of capivasertib monotherapy at the given dosing schedules.
MEASURE NAME: Cmax

compound="NC1(C(=O)N[C@@H](CCO)c2ccc(Cl)cc2)CCN(c2ncnc3[nH]ccc23)CC1 [capivasertib]" value_observed="0.42 µg/mL"

* * *

Experiment: Capivasertib exposure metrics at steady state projected with PopPK model, patients with solid tumors
Format: in vivo
Conditions: human, plasma, oral, 360 mg, Study 4 (Japanese patients), [4/3] BID, 360 mg, PWD 2880 mg, N=8, median (range), read-out: AUCss(0–12 h)
MEASURE NAME: AUC (ng·h/mL)

compound=NC1(C(=O)N[C@@H](CCO)c2ccc(Cl)cc2)CCN(c2ncnc3[nH]ccc23)CC1 result_units=ng·h/mL value_observed=6100

* * *

Experiment: Capivasertib exposure metrics at steady state projected with PopPK model, patients with solid tumors
Assay type: in vivo
Conditions: human, plasma, oral, 400 mg, Study 1, Continuous BID, PWD 5600 mg, N=11, median (range)
MEASURE NAME: Cmax (ng/mL)

compound=NC1(C(=O)N[C@@H](CCO)c2ccc(Cl)cc2)CCN(c2ncnc3[nH]ccc23)CC1 measure_name=Cmax value_observed=900

* * *

Assay: Capivasertib exposure metrics at steady state projected with PopPK model, patients with solid tumors
Assay type: in vivo
Conditions: human, plasma, oral, 320 mg, Study 4 (Japanese patients), Continuous BID, 320 mg, PWD 4480 mg, N=6, median (range), read-out: AUCss(0–12 h)
MEASURE NAME: AUC

molecule="NC1(C(=O)N[C@@H](CCO)c2ccc(Cl)cc2)CCN(c2ncnc3[nH]ccc23)CC1 [capivasertib]" value_observed="6560 ng·h/mL"

* * *

Experiment: Capivasertib exposure metrics at steady state projected with PopPK model, patients with solid tumors
Assay type: in vivo
Details: human, plasma, oral, 640 mg, Study 1, [2/5] BID, PWD 2560 mg, N=8, median (range)
MEASURE NAME: AUC at 1 week (ng·h/mL)

compound="NC1(C(=O)N[C@@H](CCO)c2ccc(Cl)cc2)CCN(c2ncnc3[nH]ccc23)CC1 [capivasertib]" measure_name="AUC at 1 week" result_units=ng·h/mL value_observed=59800

* * *

Test: Capivasertib exposure metrics at steady state projected with PopPK model, patients with solid tumors
Assay type: in vivo
Details: human, plasma, oral, 80 mg, Study 1, Continuous BID, PWD 1120 mg, N=5, median (range)
MEASURE NAME: Cmax (ng/mL)

compound=NC1(C(=O)N[C@@H](CCO)c2ccc(Cl)cc2)CCN(c2ncnc3[nH]ccc23)CC1 value_observed=150
